Tested on: Chikungunya virus
assayNotes: Antiviral activity against Chikungunya virus infected in African green monkey Vero cells assessed as reduction in viral induced cell death incubated for 5 days by MTS reagent based absorbance method
Assay type: functional, organism-based
testSettings: 120 h
# key: entry, value: EC50
Just the number in µM, nothing appended.

Sample records with EC50:
CCNc1nc(C)cc(N2CCN(C(=O)c3cccc(Br)c3)CC2)n1 :: 0.94
CCNc1nc(C)cc(N2CCC3(CCN(C(=O)c4ccc(Cl)cc4)C3)C2)n1 (stereo not given) :: 18

Continue with the next compound.
IN: # input compound: CCNc1nc(C)cc(N2CCN(C(=O)c3ccc([N+](=O)[O-])cc3)CC2)n1 ; wanted: its EC50
OUT: 0.91
